System Under Test: BAZ2B (Homo sapiens, UniProt Q9UIF8)
Construct: T7 phage strains displaying bromodomains were grown in parallel
Sequence (Q9UIF8 2060-2164 limits assumed): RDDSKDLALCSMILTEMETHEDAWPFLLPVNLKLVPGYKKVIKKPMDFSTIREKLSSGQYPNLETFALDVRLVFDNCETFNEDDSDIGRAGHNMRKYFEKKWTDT
Assay Overview: BromoKdMAX (BROMOscan, DiscoverX)

Compound String	Kd
COc1cncc(-c2cc(Nc3cccc(F)c3)nc([C@@H]3CC[C@H](C)N(C(C)=O)C3)n2)c1	> 10 µM

* * *

System Under Test: CBP Bromodomain (Homo sapiens, UniProt Q92793)
Sequence (Q92793 1085-1192 limits assumed): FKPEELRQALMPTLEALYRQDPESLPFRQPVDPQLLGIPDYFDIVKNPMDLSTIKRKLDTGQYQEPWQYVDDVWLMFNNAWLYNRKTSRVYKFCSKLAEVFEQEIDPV
Assay Overview: Assay 3: CBP bromodomain binding assay (TR-FRET)
pEC50: −log10 of the molar value.

Molecule	pEC50
CC(=O)N1C[C@H](c2nc(Nc3ccnc(C)c3)cc(-c3cnccn3)n2)CC[C@@H]1C	> 6.70
CC(=O)N1C[C@H](c2nc(Nc3cc(F)c4cn[nH]c4c3)cc(-c3cccnc3)n2)CC[C@@H]1C	> 6.70
CC(=O)N1C[C@H](c2nc(Nc3ccc4[nH]ncc4c3)cc(-c3cccnc3)n2)CC[C@@H]1C	6.00 to 6.70
CC(=O)N1C[C@H](c2nc(Nc3cncc(C)c3)cc(-c3cnccn3)n2)CC[C@@H]1C	> 6.70
CC(=O)N1C[C@H](c2nc(Nc3ccncc3)cc(-c3cccnc3)n2)CC[C@@H]1C (racemic)	6.00 to 6.70
CC(=O)N1C[C@H](c2nc(Nc3ccnc(F)c3)cc(-c3cccnc3)n2)CC[C@@H]1C	> 6.70
CC(=O)N1C[C@H](c2nc(Nc3cc(F)cc(-c4cn(C)nn4)c3)cc(-c3cnccn3)n2)CC[C@@H]1C	> 6.70
CC(=O)N1C[C@H](c2nc(Nc3ccnc(C(C)C)c3)cc(-c3cnccn3)n2)CC[C@@H]1C	> 6.70
CC(=O)N1C[C@H](c2nc(Nc3cc(F)cc(C(=O)N(C)C)c3)cc(-c3cccnc3)n2)CC[C@@H]1C	6.00 to 6.70
CC(=O)N1C[C@H](c2nc(Nc3ccnc(C)c3)cc(-c3cncc(C)c3)n2)CC[C@@H]1C	> 6.70
CC(=O)N1C[C@H](c2nc(Nc3cccc(-c4cnn(C)c4)c3)cc(-c3cccnc3)n2)CC[C@@H]1C	> 6.70
CC(=O)N1C[C@H](c2nc(Nc3cc(C)nc(N4CCOCC4)c3)cc(-c3cnccn3)n2)CC[C@@H]1C	> 6.70
CC(=O)N1C[C@H](c2nc(Nc3ccnc(F)c3)cc(-c3cnccn3)n2)CC[C@@H]1C	> 6.70

* * *

Test system: A375 cells
Assay Overview: Assay 1: A375 cells treated with S1152, S1008 and compound, immunofluorescence (sc-365823) signal
Assay type: cell-based
Assay Context: 1 μM S1152 + 0.5 μM S1008, one day
# maps each entry to its EC50

Molecule	EC50
CC(=O)N1C[C@H](c2nc(Nc3ccnc(F)c3)cc(-c3cncc4c3ccn4C)n2)CC[C@@H]1C	< 0.2 µM
CC(=O)N1C[C@H](c2nc(Nc3ccnc(C)c3)cc(-c3cnccn3)n2)CC[C@@H]1C	< 0.2 µM
CC(=O)N1C[C@H](c2nc(Nc3ccc(O)cc3)cc(-c3cccnc3)n2)CC[C@@H]1C	0.2 to 1 µM
CC(=O)N1C[C@H](c2nc(Nc3cc(F)cc(-c4cnoc4)c3)cc(-c3cccnc3)n2)CC[C@@H]1C	< 0.2 µM
CC(=O)N1C[C@H](c2nc(Nc3ccnc(-c4cnn(C5CC5)c4)c3)cc(-c3cccnc3)n2)CC[C@@H]1C	< 0.2 µM
[2H]C([2H])([2H])[C@H]1CC[C@@H](c2nc(Nc3cccc(F)c3)cc(-c3cccnc3)n2)CN1C(C)=O	< 0.2 µM
CC(=O)N1C[C@H](c2nc(Nc3ccnc(-c4cn(C)nn4)c3)cc(-c3cnccn3)n2)CC[C@@H]1C	< 0.2 µM
CC(=O)N1C[C@H](c2nc(Nc3ccncc3)cc(-c3cccnc3)n2)CC[C@@H]1C [Compound 00006]	0.2 to 1 µM
CC(=O)N1C[C@H](c2nc(Nc3cccc(-c4cn(C)nn4)c3)cc(-c3cnccn3)n2)CC[C@@H]1C	< 0.2 µM
CC(=O)N1C[C@H](c2nc(Nc3cc(C)nc(F)c3)cc(-c3cnccn3)n2)CC[C@@H]1C	< 0.2 µM
CC(=O)N1C[C@H](c2nc(Nc3cccc(-n4ccc(C)n4)c3)cc(-c3cccnc3)n2)CC[C@@H]1C	< 0.2 µM
CC(=O)N1C[C@H](c2nc(Nc3ccncc3)cc(-c3cccnc3)n2)CC[C@@H]1C (racemic) [Compound 00101]	0.2 to 1 µM
CC(=O)N1C[C@H](c2nc(Nc3cncc(C(F)F)c3)cc(-c3cccnc3)n2)CC[C@@H]1C	0.2 to 1 µM
CC(=O)N1C[C@@H](c2nc(Nc3cncc(C)c3)cc(-c3cnccn3)n2)CC[C@H]1C	> 10 µM
CC(=O)N1C[C@H](c2nc(Nc3cc(C)ncn3)cc(-c3cnccn3)n2)CC[C@@H]1C	0.2 to 1 µM
